src = patent US11174291B2

tested on: NCI-H460; experiment: NCI sulforhodamine B growth inhibition, lung cancer cells; format: cell-based, human; conditions: 48 h
Below, each of the compounds is paired with its reported Growth inhibition of human cancer cell lines GI50 value.
measure name: Growth inhibition of human cancer cell lines GI50

{"compound": "CC(C)C[C@H]1OC(=O)[C@H](Cc2ccc(O)cc2)NC(=O)[C@H](C)OC(=O)[C@@H](C(C)C)NC(=O)[C@@H](CC(C)C)OC(=O)[C@H](C(C)C)NC(=O)[C@H](C)OC(=O)[C@@H](C(C)C)NC(=O)[C@@H](CC(C)C)OC(=O)[C@H](C(C)C)NC(=O)[C@H](C)OC(=O)[C@@H](C(C)C)NC1=O", "target desc": "NCI-H460", "observed": "3.7 ng/mL"}
{"compound": "CC(C)C[C@H]1OC(=O)[C@H](C(C)C)NC(=O)[C@H](C)OC(=O)[C@@H](C(C)C)NC(=O)[C@@H](CC2CCCCC2)OC(=O)[C@H]([C@@H](C)OC(C)(C)C)NC(=O)[C@H](C)OC(=O)[C@@H](C(C)C)NC(=O)[C@@H](CC(C)C)OC(=O)[C@H](C(C)C)NC(=O)[C@H](C)OC(=O)[C@@H](C(C)C)NC1=O [Silstatin 17a]", "target desc": "NCI-H460", "observed": "9 ng/mL"}

###

Test system: MCF-7
Test: NCI sulforhodamine B growth inhibition, breast cancer cells
Format: cell-based, human
Details: MCF-7 breast, 48 h
Experimental: Inhibition of human cancer cell growth was assessed using the National Cancer Institute's standard sulforhodamine B assay as previously described.^19In summary, cells in a 5% fetal bovine serum/RPMI1640 medium were inoculated in 96-well plates and incubated for 24 hrs. Next, serial dilutions of the compounds were added. After 48 h, the plates were fixed with trichloroacetic acid, stained with sulforhodamine B, and read with an automated microplate reader. […]
measure name: Growth inhibition of human cancer cell lines GI50 (ng/mL)

{"molecule": "CC(C)[C@@H]1NC(=O)[C@H](C)OC(=O)[C@@H](C(C)C)NC(=O)[C@@H](CC2CCCCC2)OC(=O)[C@H](C(C)C)NC(=O)[C@H](C)OC(=O)[C@@H](C(C)C)NC(=O)[C@@H](CC2CCCCC2)OC(=O)[C@H](Cc2ccc(O)cc2)NC(=O)[C@H](C)OC(=O)[C@@H](C(C)C)NC(=O)[C@@H](CC2CCCCC2)OC1=O [Silstatin 6 (15b)]", "relation": "=", "observed": 120}
{"molecule": "CC(C)C[C@H]1OC(=O)[C@H](C(C)C)NC(=O)[C@H](C)OC(=O)[C@@H](C(C)C)NC(=O)[C@@H](CC2CCCCC2)OC(=O)[C@H]([C@@H](C)OC(=O)CCCN(C)C(=O)OCc2ccc(O[C@@H]3O[C@H](C(=O)O)[C@@H](O)[C@H](O)[C@H]3O)c([N+](=O)[O-])c2)NC(=O)[C@H](C)OC(=O)[C@@H](C(C)C)NC(=O)[C@@H](CC(C)C)OC(=O)[C@H](C(C)C)NC(=O)[C@H](C)OC(=O)[C@@H](C(C)C)NC1=O", "relation": "=", "observed": 31}
{"molecule": "CC(C)C[C@H]1OC(=O)[C@H](C(C)C)NC(=O)[C@H](C)OC(=O)[C@@H](C(C)C)NC(=O)[C@@H](CC2CCCCC2)OC(=O)[C@H]([C@@H](C)O)NC(=O)[C@H](C)OC(=O)[C@@H](C(C)C)NC(=O)[C@@H](CC(C)C)OC(=O)[C@H](C(C)C)NC(=O)[C@H](C)OC(=O)[C@@H](C(C)C)NC1=O [Silstatin 7 (18a)]", "relation": "=", "observed": 1.4}
{"molecule": "CC(C)C[C@H]1OC(=O)[C@H](C(C)C)NC(=O)[C@H](C)OC(=O)[C@@H](C(C)C)NC(=O)[C@@H](CC(C)C)OC(=O)[C@H]([C@@H](C)O)NC(=O)[C@H](C)OC(=O)[C@@H](C(C)C)NC(=O)[C@@H](CC(C)C)OC(=O)[C@H](C(C)C)NC(=O)[C@H](C)OC(=O)[C@@H](C(C)C)NC1=O", "relation": "=", "observed": 2.2}
{"molecule": "CC(C)C[C@H]1OC(=O)[C@H](C(C)C)NC(=O)[C@H](C)OC(=O)[C@@H](C(C)C)NC(=O)[C@@H](CC(C)C)OC(=O)[C@H](C(C)C)NC(=O)[C@H](C)OC(=O)[C@@H](C(C)C)NC(=O)[C@@H](CC2CCCCC2)OC(=O)[C@H](Cc2ccc(O)cc2)NC(=O)[C@H](C)OC(=O)[C@@H](C(C)C)NC1=O [Silstatin 8 (18b)]", "relation": "=", "observed": 1.1}
{"molecule": "CC(C)[C@@H]1NC(=O)[C@H](C)OC(=O)[C@@H](C(C)C)NC(=O)[C@@H](CC2CCCCC2)OC(=O)[C@H](C(C)C)NC(=O)[C@H](C)OC(=O)[C@@H](C(C)C)NC(=O)[C@@H](CC2CCCCC2)OC(=O)[C@H](C(C)C)NC(=O)[C@H](C)OC(=O)[C@@H](C(C)C)NC(=O)[C@@H](CC2CCCCC2)OC1=O [Silstatin 4 (14a), Cyclo-[Val-D-Hcha-D-Val-Lac]3]", "relation": "=", "observed": 180}
{"molecule": "CC(C)[C@@H]1NC(=O)[C@H](C)OC(=O)[C@@H](C(C)C)NC(=O)[C@@H](CC2CCCCC2)OC(=O)[C@H]([C@@H](C)OC(C)(C)C)NC(=O)[C@H](C)OC(=O)[C@@H](C(C)C)NC(=O)[C@@H](CC2CCCCC2)OC(=O)[C@H](C(C)C)NC(=O)[C@H](C)OC(=O)[C@@H](C(C)C)NC(=O)[C@@H](CC2CCCCC2)OC1=O [Silstatin 14b]", "relation": "=", "observed": 75}
{"molecule": "CC(C)C[C@H]1OC(=O)[C@H](Cc2ccc(O)cc2)NC(=O)[C@H](C)OC(=O)[C@@H](C(C)C)NC(=O)[C@@H](CC(C)C)OC(=O)[C@H](C(C)C)NC(=O)[C@H](C)OC(=O)[C@@H](C(C)C)NC(=O)[C@@H](CC(C)C)OC(=O)[C@H](C(C)C)NC(=O)[C@H](C)OC(=O)[C@@H](C(C)C)NC1=O", "relation": "=", "observed": 1.6}
{"molecule": "CC(C)[C@@H]1NC(=O)[C@H](C)OC(=O)[C@@H](C(C)C)NC(=O)[C@@H](CC2CCCCC2)OC(=O)[C@H](C(C)C)NC(=O)[C@H](C)OC(=O)[C@@H](C(C)C)NC(=O)[C@@H](CC2CCCCC2)OC(=O)[C@H](Cc2ccc(OC(C)(C)C)cc2)NC(=O)[C@H](C)OC(=O)[C@@H](C(C)C)NC(=O)[C@@H](CC2CCCCC2)OC1=O [Silstatin 14c]", "relation": ">", "observed": 1000}
{"molecule": "CC(C)C[C@H]1OC(=O)[C@H](C(C)C)NC(=O)[C@H](C)OC(=O)[C@@H](C(C)C)NC(=O)[C@@H](CC(C)C)OC(=O)[C@H](C(C)C)NC(=O)[C@H](C)OC(=O)[C@@H](C(C)C)NC(=O)[C@@H](CC2CCCCC2)OC(=O)[C@H](Cc2ccc(OC(C)(C)C)cc2)NC(=O)[C@H](C)OC(=O)[C@@H](C(C)C)NC1=O [Silstatin 17b]", "relation": "=", "observed": 32}
{"molecule": "CC(C)C[C@H]1OC(=O)[C@H](C(C)C)NC(=O)[C@H](C)OC(=O)[C@@H](C(C)C)NC(=O)[C@@H](CC2CCCCC2)OC(=O)[C@H]([C@@H](C)OC(C)(C)C)NC(=O)[C@H](C)OC(=O)[C@@H](C(C)C)NC(=O)[C@@H](CC(C)C)OC(=O)[C@H](C(C)C)NC(=O)[C@H](C)OC(=O)[C@@H](C(C)C)NC1=O [Silstatin 17a]", "relation": "=", "observed": 1}
{"molecule": "CC(C)[C@@H]1NC(=O)[C@H](C)OC(=O)[C@@H](C(C)C)NC(=O)[C@@H](CC2CCCCC2)OC(=O)[C@H]([C@@H](C)O)NC(=O)[C@H](C)OC(=O)[C@@H](C(C)C)NC(=O)[C@@H](CC2CCCCC2)OC(=O)[C@H](C(C)C)NC(=O)[C@H](C)OC(=O)[C@@H](C(C)C)NC(=O)[C@@H](CC2CCCCC2)OC1=O [Silstatin 5 (15a)]", "relation": "=", "observed": 3.1}
{"molecule": "CC(C)C[C@H]1OC(=O)[C@H](Cc2ccc(OC(C)(C)C)cc2)NC(=O)[C@H](C)OC(=O)[C@@H](C(C)C)NC(=O)[C@@H](CC(C)C)OC(=O)[C@H](C(C)C)NC(=O)[C@H](C)OC(=O)[C@@H](C(C)C)NC(=O)[C@@H](CC(C)C)OC(=O)[C@H](C(C)C)NC(=O)[C@H](C)OC(=O)[C@@H](C(C)C)NC1=O", "relation": "=", "observed": 4.2}
